- assay_target: T1, CADM1 peptide structure expressed on cells (CADM1 peptide, Myc tag, hinge, transmembrane domain, GFP) (human)
- T1 sequence: DSRAGEEGSIRAVDH
- assay_remarks: flow cytometry, 1 ug scFv on 5x10^5 cells with the CADM1 peptide structure, PE anti-HA
property: 결합력 % (%)
The response must be a number in % with no trailing unit.

binder	property	measurement_units	value_measured
4A2 (scFv, V domains shown) VH: AVTLDESGGGLQTPGRALSLACKGSGFTFSSYAMNWVRQAPGKGLEFVAQITSSGRYTYYGTAVKGRATISRDNGQSTVRLQLNNLRAEDSGTYYCAKDAAAGYYDGATAGDIDAWGHGTEVIVSS VL: LTQPSSVSANPGETVKITCSGGYNRYGWYQQKSPGSAPVTVIYSNNQRPSNIPSRFSGSKSGSTATLTITGVQAEDEAVYYCGSYDSSDGYAGIFGAGTTLTVL	결합력 %	%	16.3
RB11 (scFv, V domains shown) VH: AVTLDESGGGLQTPGGGLSLVCKGSGFTFSSYAMNWVRQAPGKGLEFVAQITSSGRYTYYGTAVKGRATISRDNGQSTVRLQLNNLRAEDSGTYYCAKDAAAGYYDGATAGDIDAWGHGTEVIVSS VL: LTQPSSVSANPGGTVKITCSGGSGSYGWFQQKAPGSAPVTLIYANTNRPSDIPSRFSGSKSGSTATLTITGVQVEDEAVYYCGSTDSSYVSIFGAGTTLTVL	결합력 %	%	16
4A8 (scFv, V domains shown) VH: AVTLDESGGGLQTPGGGLSLVCKASGFTFSSYAMNWVRQAPGKGLEFVAQITSSGRYTYYGTAVKGRATISRDNGQSTVRLQLNNLRAEDSGTYYCAKDAAAGYYDGATAGDIDAWGHGTEVIVSS VL: LTQPSSVSANLGGTVKITCSGGSGSNHYGWYQQKSPGSAPVTVIYSNNKRPSNIPSRFSGSKFGSTATLTITGVQADDEAVYYCGGYDSSAGYIGPFGAGTTLTVL	결합력 %	%	14.7

Please look up its 결합력 %: RH6 (scFv, V domains shown) VH: AVTLDESGGGLQTPGGGLSLVCKGSGFTFSSYAMNWVRQAPGKGLEFVAQITSSGRYTYYGTAVKGRATISRDNGQSTVRLQLNNLRAEDSGTYYCAKDAAAGYYDGATAGDIDAWGHGTEVIVSS VL: VTQPSSVSANPGESVKITCSGGSYSYGWYQQKSPGSAPVTVIYSNNQRPSNIPSRFSGSTSGSTSTLTITGVQADDEAVYFCGTFDSSTNAAFGAGTTLTVL
15.3
